Across several publications, the following pIC50 results were reported for Signal transducer and activator of transcription 3 (Homo sapiens).
// pIC50: -log10(molar conc.)

Use these answered entries as a reference point.
In [3]: df
Out[3]:
                         compound_structure  measured_value
0  CN1CCN(c2cc3c(cc2Nc2nnc(-c4ccc(C(F)(F)F)cc4)s2)nc(-c2ccc(F)cc2)n3C2CC2)CC1            4.80
1  COc1ccc(NC2=CC(=O)c3cc(C(C)=O)oc3C2=O)cc1            5.29

[in] API: value(readout=pIC50, system=Signal transducer and activator of transcription 3 (Homo sapiens)) for record CC(C)C[C@H](NC(=O)/C=C/c1ccc(OP(=O)(O)O)cc1)C(=O)N1C[C@H]2C[C@H]2[C@H]1C(=O)N[C@@H](CCC(N)=O)[C@@H](C)O
[out] 6.36

[in] Given the entry CC(=O)c1cc2c(o1)C(=O)C(Nc1ccccc1C)=CC2=O , what pIC50 was observed with Signal transducer and activator of transcription 3 (Homo sapiens)?
[out] 5.26
